Assay: Primary qHTS for Inhibitors of ATXN expression; also: nearly all actives have a fitted effect of over 55% in size
Conditions: HEK-293 ATXN2-luciferase reporter, luminescence, 24 h; series mostly up to 57 µM
Out of some 360,000 compounds screened, about 2,600 (0.72%) were called active. Roughly 5% stayed inconclusive and do not appear here. Calls follow the shape of the dose curve; as a rule, active = well fitted inhibition curve with a large enough effect; inconclusive = small, poorly fitted or top-dose-only effect; inactive = no such curve, though single readings can be large or run the other way. Many of the other results were omitted from the sample, so actives are more common in it than they were.
Select the matching outcome among T for active, F for inactive

Outcome logged for COC(=O)c1ccc2nc(-c3ccc(OC)c(OC)c3)c(Cc3ccccc3)n2c1 in this assay:
F

Outcome logged for O=C(NCCc1ccccc1)C(=O)NCC(c1ccco1)S(=O)(=O)c1ccccc1 (stereo not given) in this assay:
F

Outcome logged for COc1ccc(NC(=O)CCC(=O)Nc2cc(OC)c(NC(=O)c3ccco3)cc2OC)c(OC)c1 in this assay:
F

Outcome logged for CC(OC(=O)c1ccc([N+](=O)[O-])cc1)C(=O)NCC1CCCCC1 (stereo not given) in this assay:
F

Outcome logged for COc1ccc2c(c1)c(=Cc1ccc(N(C)C)cc1)c1cc(-c3ccccc3)[n+](C)n12 in this assay:
T

These entries and their values trace back to PubChem BioAssay AID1745845.
